The values you see were collected from patent US20190144558A1.

ASSAY SYSTEM: T1, rhesus CD117 ectodomain (rhesus, UniProt F6V858 26-524)
T1 construct: extracellular domain
PROTOCOL TEXT: BLI (Octet Red96), IgG on anti-human Fc sensors, rhesus CD117 ectodomain at 33.3 and 11 nM, 1:1 fit
READOUT: koff (s⁻¹)

[[record]]
binder = "Antibody 61 (antibody, human IgG1, kappa, V domains shown, also called Ab61; HC-61/LC-61) VH: EVQLLESGGGLVQPGGSLRLSCAASGFTFSSYVMIWVRQAPGKGLEWVSSISGDSVTTYYADSVKGRFTISRDNSKNTLYLQMNSLRAEDTAVYYCAKGPPTYHTNYYYMDVWGKGTTVTVSS VL: DIQMTQSPSSVSASVGDRVTITCRASQGISSWLAWYQQKPGKAPKLLIYAASSLQSGVPSRFSGSGSGTDFTLTISSLQPEDFATYYCQQTNSFPYTFGGGTKVEIKR"
measurement_unit = "s⁻¹"
measurement = 0.00472

[[record]]
binder = "Antibody 57 (antibody, human IgG1, kappa, V domains shown, also called Ab57; HC-57/LC-57) VH: QVQLVQSGAEVKKPGSSVKVSCKASGGTFSLYAISWVRQAPGQGLEWMGGIIPHFGLANYAQKFQGRVTITADESTSTAYMELSSLRSEDTAVYYCARGGLDTDEFDLWGRGTLVTVSS VL: DIQMTQSPSSLSASVGDRVTITCRASQSINSYLNWYQQKPGKAPKLLIYAASSLQSGVPSRFSGSGSGTDFTLTISSLQPEDFATYYCQQGVSDITFGGGTKVEIKR"
measurement_unit = "s⁻¹"
measurement = "8.57e-05"

